biological target: T1, monkey SEMA4D, full length, on CHO-K1 cells (CHO-K1 cSEMA4D) (monkey); experiment: FACS, CHO-K1 cSEMA4D cells; Ab 0.107 nM
T1 construct: whole, on cells; also called monkey SEMA4D recombinant cells
Readings of MFI for the listed binders
When you answer, write just the number.

Binder	Value Observed
38H2E3 (antibody, V domains shown, Mouse monoclonal antibody purified from hybridoma supernatant on protein A) VH: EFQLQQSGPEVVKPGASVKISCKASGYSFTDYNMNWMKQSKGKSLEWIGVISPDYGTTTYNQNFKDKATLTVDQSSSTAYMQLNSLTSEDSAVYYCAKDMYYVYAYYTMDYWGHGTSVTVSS VL: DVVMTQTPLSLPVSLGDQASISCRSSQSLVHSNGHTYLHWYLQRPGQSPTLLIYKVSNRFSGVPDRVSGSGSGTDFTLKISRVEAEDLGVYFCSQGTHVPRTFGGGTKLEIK	210

Reported MFI ( 37C4F7 (antibody, V domains shown, Mouse monoclonal antibody purified from hybridoma supernatant on protein A) VH: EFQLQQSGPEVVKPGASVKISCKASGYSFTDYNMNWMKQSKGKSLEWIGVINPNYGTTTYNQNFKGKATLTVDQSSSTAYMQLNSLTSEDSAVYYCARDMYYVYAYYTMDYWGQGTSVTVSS VL: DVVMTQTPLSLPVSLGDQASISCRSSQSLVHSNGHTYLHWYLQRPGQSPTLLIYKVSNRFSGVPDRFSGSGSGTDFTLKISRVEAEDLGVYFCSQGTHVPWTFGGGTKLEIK ) = 237

Reported MFI ( 31C11G2 (antibody, V domains shown, Mouse monoclonal antibody purified from hybridoma supernatant on protein A) VH: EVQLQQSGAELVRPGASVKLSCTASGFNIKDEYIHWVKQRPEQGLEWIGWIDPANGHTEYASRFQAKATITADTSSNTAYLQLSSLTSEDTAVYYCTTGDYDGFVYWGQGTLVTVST VL: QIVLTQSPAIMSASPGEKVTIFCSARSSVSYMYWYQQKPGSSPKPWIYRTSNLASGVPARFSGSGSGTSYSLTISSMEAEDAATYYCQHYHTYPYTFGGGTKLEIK ) = 1210
